# subject-of-test: human GPR39 receptor (Homo sapiens)
# Construct: PC3 Cells, Expressing the Endogenous Human GPR39 Receptor; endogenous in cells
# Sequence (O43194 whole entry): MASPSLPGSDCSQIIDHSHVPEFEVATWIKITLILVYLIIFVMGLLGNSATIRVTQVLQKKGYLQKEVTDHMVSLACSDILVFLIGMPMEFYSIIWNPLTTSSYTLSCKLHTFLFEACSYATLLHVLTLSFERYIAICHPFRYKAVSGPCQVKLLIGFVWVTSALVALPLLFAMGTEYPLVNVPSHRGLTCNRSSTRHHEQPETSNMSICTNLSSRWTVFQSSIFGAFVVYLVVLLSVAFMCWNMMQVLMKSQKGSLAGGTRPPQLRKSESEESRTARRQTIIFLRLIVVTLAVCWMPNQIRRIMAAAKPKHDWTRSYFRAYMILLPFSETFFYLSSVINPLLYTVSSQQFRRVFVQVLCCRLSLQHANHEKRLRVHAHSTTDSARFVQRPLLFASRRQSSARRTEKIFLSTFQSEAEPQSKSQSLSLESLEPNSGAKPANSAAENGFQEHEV
# assay-text: Intracellular calcium response (FLIPR, Calcium-6) in PC3 cells, antagonism of agonist C3 (TC-G 1008) at EC90
# details: functional pKi (-Log10Ki) by modified Cheng-Prusoff from IC50; PC3 cells endogenously expressing human GPR39; 30 μM ZnCl2; agonist C3 (TC-G 1008) at EC90 1.5 μM; read-out: fpKi activity
pKi: −log10 of the molar value.
measurement-label: pKi

compound | subject-of-test | measurement-label | result
CN1CCN(C(=O)c2ccc(NC(=O)C3CC3)cc2N2CCCC2)C(c2cccc(C#N)c2)C1 (racemic) | human GPR39 receptor (Homo sapiens) | pKi | 6.60 to 7.20
Cc1cnc(-c2ccc(C(=O)N3CCC(F)(F)CC3)c(-c3ccn(C(C)C)n3)c2)[nH]1 | human GPR39 receptor (Homo sapiens) | pKi | 6.60 to 7.20
CN1CCN(C(=O)c2cc(Cl)c(NC(=O)C3CC3)cc2N2CCCC2)C(c2ccccc2)C1 (stereo not shown) | human GPR39 receptor (Homo sapiens) | pKi | < 5.20
Cc1nnc(-c2ccc(C(=O)N3CCC(F)(F)CC3)c(-c3ccn(C4COC4)n3)c2)[nH]1 | human GPR39 receptor (Homo sapiens) | pKi | ≥ 7.30
